format: physicochemical
quantity: logP
Output: the number by itself.

INPUT: Can you share its logP? I mean this molecule: O=C(O)CC[C@H](NC(=O)N[C@@H](CCCCNC(=O)CCCCCCC(=O)NCCCC[C@@H](NC(=O)[C@@H](Cc1ccc2ccccc2c1)NC(=O)[C@@H](Cc1ccc(O)cc1)NC(=O)CCC(C(=O)O)N1CCN(CC(=O)O)CCN(CC(=O)O)CCN(CC(=O)O)CC1)C(=O)O)C(=O)O)C(=O)O (stereo partly shown) [[^nat/177Lu]PSMA-4, DOTAGA-y-nal-k-KuE, metal not drawn, reference compound]
OUTPUT: -4.11

* * *

Listed here are compounds together with their documented IC50.
biological target: PSMA (Homo sapiens, UniProt Q04609); assay: Determination of IC50: competitive binding against ([125I]I-BA)KuE on cells; conditions: natLu complexes; displacement of ([125I]I-BA)KuE, 60 min on ice, HBSS (1% BSA)
Sequence (Q04609 whole entry): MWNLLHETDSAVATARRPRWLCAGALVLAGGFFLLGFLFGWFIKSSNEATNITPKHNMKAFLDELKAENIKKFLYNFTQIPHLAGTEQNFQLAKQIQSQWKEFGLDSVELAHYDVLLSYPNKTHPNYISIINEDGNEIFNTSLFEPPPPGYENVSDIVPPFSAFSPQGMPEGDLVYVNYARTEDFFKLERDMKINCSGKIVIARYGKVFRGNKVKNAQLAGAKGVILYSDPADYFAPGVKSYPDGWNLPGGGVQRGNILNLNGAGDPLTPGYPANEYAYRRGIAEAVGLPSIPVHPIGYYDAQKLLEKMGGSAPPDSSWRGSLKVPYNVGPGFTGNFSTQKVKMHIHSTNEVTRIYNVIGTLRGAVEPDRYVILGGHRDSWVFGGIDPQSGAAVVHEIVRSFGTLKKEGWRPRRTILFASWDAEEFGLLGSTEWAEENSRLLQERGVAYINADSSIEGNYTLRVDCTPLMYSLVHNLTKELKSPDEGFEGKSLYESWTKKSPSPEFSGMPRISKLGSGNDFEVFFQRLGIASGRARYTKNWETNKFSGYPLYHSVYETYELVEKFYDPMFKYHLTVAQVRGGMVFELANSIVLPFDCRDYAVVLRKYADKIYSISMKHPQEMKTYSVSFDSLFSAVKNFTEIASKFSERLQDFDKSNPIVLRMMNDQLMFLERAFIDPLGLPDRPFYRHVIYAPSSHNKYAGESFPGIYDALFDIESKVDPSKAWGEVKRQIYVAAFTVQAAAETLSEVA
Numbered stars: 1 amine (or outer) side, 2 acyl side, 3 side chain; on linkers, the order of the positions; unused ones are H or OH. Square brackets hold non-standard residues; d marks the D form. Side chains are listed from the residue outwards. Peptide text beside a SMILES is read from it. * marks the point of attachment. X2 = O=C(O)CC[C@H](NC(=O)N[C@@H](CCC(=O)N[C@H](CCCN*)C(=O)O)C(=O)O)C(=O)O; X1 = O=C(O)CC[C@H](NC(=O)N[C@@H](CCCCNC(=O)CCCCCCC(=O)*)C(=O)O)C(=O)O; DOTAGA = O=C(O)CN1CCN(CC(=O)O)CCN(C(CCC(=O)*)C(=O)O)CCN(CC(=O)O)CC1; dPhe(4-NH2) = Nc1ccc(C[C@@H](N)C(=O)O)cc1; Phe(4-NH2) = Nc1ccc(C[C@H](N)C(=O)O)cc1; d2Nal = N[C@H](Cc1ccc2ccccc2c1)C(=O)O; Suc = O=C(CCC(=O)[*:2])[*:1]
The response must be a number in nM with no trailing unit.

Take a look at these entries with their results.
INPUT: Can you share its IC50? I mean this compound: O=C(O)CC[C@H](NC(=O)N[C@@H](CCCCNC(=O)[C@@H](Cc1ccc(I)cc1)NC(=O)CCCC(=O)NCCCC[C@@H](NC(=O)[C@@H](Cc1ccc2ccccc2c1)NC(=O)[C@@H](Cc1ccc(O)cc1)NC(=O)CCC(C(=O)O)N1CCN(CC(=O)O)CCN(CC(=O)O)CCN(CC(=O)O)CC1)C(=O)O)C(=O)O)C(=O)O (stereo partly drawn) [[^nat/177Lu]PSMA-10, DOTAGA-y-nal-k(Glut-(l-f)-KuE), metal not drawn, reference compound]
OUTPUT: 6.1

INPUT: // same read-out, input: Nc1ccc(C[C@H](NC(=O)CCC(C(=O)O)N2CCN(CC(=O)O)CCN(CC(=O)O)CCN(CC(=O)O)CC2)C(=O)N[C@H](Cc2ccc(O)cc2)C(=O)N[C@H](Cc2ccc3ccccc3c2)C(=O)N[C@H](CCCCNC(=O)CCC(=O)NCCC[C@@H](NC(=O)CC[C@H](NC(=O)N[C@@H](CCC(=O)O)C(=O)O)C(=O)O)C(=O)O)C(=O)O)cc1 (stereo partly shown) [[^nat/177Lu]PSMA-9, metal not drawn] ({DOTAGA}-[Phe(4-NH2)][dY][d2Nal][dK]([Suc-X2])-OH)
OUTPUT: 2.5

INPUT: // same read-out, input: Nc1ccc(C[C@@H](NC(=O)CCC(C(=O)O)N2CCN(CC(=O)O)CCN(CC(=O)O)CCN(CC(=O)O)CC2)C(=O)N[C@H](Cc2ccc(O)cc2)C(=O)N[C@H](Cc2ccc3ccccc3c2)C(=O)N[C@H](CCCCNC(=O)CCCCCCC(=O)NCCCC[C@H](NC(=O)N[C@@H](CCC(=O)O)C(=O)O)C(=O)O)C(=O)O)cc1 (stereo partly shown) [[^nat/177Lu]PSMA-5, DOTAGA-(4-NH2)f-y-nal-k-KuE, metal not drawn] ({DOTAGA}-[dPhe(4-NH2)][dY][d2Nal][dK](X1)-OH)
OUTPUT: 5.8

Kindly consider the entry below.
INPUT: Can you share its IC50? I mean this compound: Nc1ccc(C[C@H](NC(=O)CCC(C(=O)O)N2CCN(CC(=O)O)CCN(CC(=O)O)CCN(CC(=O)O)CC2)C(=O)N[C@H](Cc2ccc(O)cc2)C(=O)N[C@H](Cc2ccc3ccccc3c2)C(=O)N[C@H](CCCCNC(=O)CCCCCCC(=O)NCCCC[C@H](NC(=O)N[C@@H](CCC(=O)O)C(=O)O)C(=O)O)C(=O)O)cc1 (stereo partly shown) [[^nat/177Lu]PSMA-6, DOTAGA-(4-NH2)F-y-nal-k-KuE, metal not drawn] ({DOTAGA}-[Phe(4-NH2)][dY][d2Nal][dK](X1)-OH)
OUTPUT: 1.1
